Readings of MIC for the listed compounds
# System: C. neoformans MMX 0634 ATCC 90112
# Experimental protocol: MIC assay (CLSI microdilution)
# Type: cell-based
# Measurement context: Cryptococcus neoformans, ATCC90112, RPMI plus 0.002% Tween-80; read-out: MIC
Numbered stars: 1 amine (or outer) side, 2 acyl side, 3 side chain; on linkers, the order of the positions; unused ones are H or OH. Square brackets hold non-standard residues; d marks the D form. Peptide text beside a SMILES is read from it. X30 = CN([C@@H](Cc1cccc(-c2ccc(Cl)c(Cl)c2)c1)C(=O)[*:2])[*:1]; X25 = CN([C@@H](Cc1cccc(-c2ccc3cccnc3c2)c1)C(=O)[*:2])[*:1]; Hmp(2R,3S) = CC[C@H](C)[C@@H](O)C(=O)O; NMeVal(β-OH) = CN[C@H](C(=O)O)C(C)(C)O; NMeV = CN[C@H](C(=O)O)C(C)C
API: value field is a number in µg/mL; no unit string.

Ask | Any idea what its MIC is? The compound is CC[C@H](C)[C@@H]1NC(=O)[C@@H]2CCCN2C(=O)[C@H](Cc2cccc(-c3ccc(Cl)c(Cl)c3)c2)N(C)C(=O)[C@H](Cc2ccccc2)NC(=O)[C@H](C(C)C)N(C)C(=O)[C@@H]([C@@H](C)CC)OC(=O)[C@H](C(C)(C)O)N(C)C(=O)[C@H](CC(C)C)NC(=O)[C@H](C(C)C)N(C)C1=O [Compound 2] (cyclo(F[X30]PI[NMeV]L[NMeVal(β-OH)][Hmp(2R,3S)][NMeV]))
Reply | 0.12

New cases:
Ask | Which MIC value belongs to CC[C@H](C)[C@@H]1NC(=O)[C@@H]2CCCN2C(=O)[C@H](Cc2cccc(-c3ccc4cccnc4c3)c2)N(C)C(=O)[C@H](Cc2ccccc2)NC(=O)[C@H](C(C)C)N(C)C(=O)[C@@H]([C@@H](C)CC)OC(=O)[C@H](C(C)(C)O)N(C)C(=O)[C@H](CC(C)C)NC(=O)[C@H](C(C)C)N(C)C1=O [Compound 10] (cyclo(F[X25]PI[NMeV]L[NMeVal(β-OH)][Hmp(2R,3S)][NMeV])) ?
Reply | 0.12

Where do the numbers come from? From patent US11066447B2.
